Test: differential killing of epithelial or mesenchymal cells, primary screen, imaging, PC-3E GFP, TEM4-18 mCherry, co-culture (AID 1345086);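 also: cells exposed to compound for 72 h before imaging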
Conditions: imaging cell counts, measured here: epithelial PC-3E GFP cell survival, at 1 µM
Square brackets hold non-standard residues; d marks the D form. Peptide text beside a SMILES is read from it. Orn = NCCC[CH](N)C(=O)O
OUTCOME_MEASURE: normalised cell number
// no unit string in output, number only

CC(C)CC1NC(=O)C(CCCN)NC(=O)C(C(C)C)NC(=O)C2CCCN2C(=O)C(Cc2ccccc2)NC(=O)C(CC(C)C)NC(=O)C(CCCN)NC(=O)C(C(C)C)NC(=O)C2CCCN2C(=O)C(Cc2ccccc2)NC1=O (configuration not stated) (cyclo(FPV[Orn]LFPV[Orn]L); configuration not given here)    0.39
CC(=O)OC1CCC2(C)C(=CC=C3C2CCC2(C)C3CCC2C(C)/C=C/C(C)C(C)C)C1(C)C (configuration not stated)    0.92
COC(=O)[C@]12Oc3c(c(O)cc4c3C3C=C[C@]5(C4)C(=C(O)c4c(O)cc(C)cc4[C@@H]5OC(C)=O)C3=O)C(O)=C1C(=O)C=C[C@@H]2O    0.87
COc1ccc([C@@H]2CC(=O)c3c(O)cc(O[C@@H]4O[C@H](CO[C@H]5O[C@@H](C)[C@H](O)[C@@H](O)[C@H]5O)[C@@H](O)[C@H](O)[C@H]4O)cc3O2)cc1O    0.99
FC(F)(F)C(Cl)Br (configuration not stated)    1.13
Cc1c(F)c(F)cc(C(=O)NC(=O)NC2CC2)c1F    1.02

Quick one: give measured normalised cell number for COc1ccc(-c2oc3ccccc3c(=O)c2OC)cc1
1.18

Identify normalised cell number associated with the molecule C[N+]1(C)C2CC[C@H]1CC(OC(=O)C(O)c1ccccc1)C2 (some centres not stated)
1.16

// Input: CC(C)=CCC[C@H](C)[C@H]1CC[C@]2(C)C[C@@H]3C(C)=CC(=O)[C@@H]3/C(C=O)=C\C[C@@H]12 . Output its normalised cell number only.
1.16

Entry CC(=O)O[C@H]1C[C@@]2(C)[C@@H](C[C@@H](O)C3[C@]2(C)CC[C@H]2[C@H](C)[C@H](O)CC[C@]32C)/C1=C(/CCC=C(C)C)C(=O)O (some centres not stated) needs its normalised cell number filled in; supply it.
1.06

Return value of normalised cell number for input COC(=O)c1cn(C2CC2)c2c(OC)c(F)c(F)c(N)c2c1=O , no commentary.
0.97

Output normalised cell number of CC(C)(O/N=C(\C(=O)N[C@@H]1C(=O)N2C(C(=O)[O-])=C(C[n+]3ccccc3)CSC12)c1csc(N)n1)C(=O)O (some centres not stated)
1.28

* * *

Test: modulation of C. elegans fzo-1 (AID 1259413);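 also: fzo-1 mutant C. elegans worms in liquid wells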
Settings: C. elegans fzo-1 modulator screen, mean read-out; stronger effect = higher value
Overview of recorded mean signal for various molecules
Number only, no unit.

The following molecules have reported results that may help.
C[C@@H]1C[C@H]2[C@@H]3CCC4=CC(=O)C=CC4(C)[C@@]3(F)[C@@H](O)CC2(C)[C@H]1C(=O)CO (some centres not stated)    245
C[C@H]1[C@@H](OC(=O)CCC(=O)O)O[C@@H]2OC3(C)CC[C@H]4[C@H](C)CC[C@@H]1[C@@]24OO3    258
COc1cc(/C=C/c2ccc(O)cc2)cc(OC)c1    227
C[C@@H]1C[C@H]2[C@@H]3CCC4=CC(=O)C=CC4(C)[C@@]3(F)[C@@H](O)CC2(C)[C@@]1(O)C(=O)CO (some centres not stated)    285
COc1cc(N)c(Cl)cc1C(=O)N[C@@H]1CCN(CCCOc2ccc(F)cc2)C[C@@H]1OC    277

# return recorded mean signal for entry CC(=O)S[C@@H]1CC2=CC(=O)CCC2(C)[C@H]2CCC3(C)[C@@H](CC[C@@]34CCC(=O)O4)[C@H]12 (some centres not stated)
260

Please indicate mean signal recorded for O=C1c2c(O)cc(O)cc2O[C@H](c2ccc(O)c(O)c2)[C@H]1O
241

Using known records, supply mean signal for CC(=O)SCC(Cc1ccccc1)C(=O)NCC(=O)OCc1ccccc1 (configuration not stated)
251

Give recorded mean signal. C=CCc1ccc(O)c(-c2ccc(O)c(CC=C)c2)c1
216

Note down mean signal recorded for O=C1c2c(O)cc(O)cc2O[C@H](c2ccc(O)c(O)c2)[C@@H]1O
251

Let me know recorded mean signal for C=CC1=C(C(=O)O)N2C(=O)[C@@H](NC(=O)/C(=N/OCC(=O)O)c3csc(N)n3)[C@H]2SC1 , thanks.
257

Quickly give me recorded mean signal for O=C(O[C@H]1[C@H](Oc2ccccc2COC(=O)C2(O)C=CCCC2=O)O[C@H](CO)[C@@H](O)[C@@H]1O)c1ccccc1 (some centres not stated)
249

Consider the molecule COc1cc(C)c(/C=C/C(C)=C/C=C/C(C)=C/C(=O)O)c(C)c1C . State its measured mean signal.
260

Identify measured mean signal corresponding to CCCCN1CCCC1CNC(=O)c1cc(C#N)c2ccccc2c1OC (configuration not stated)
308

Note down mean signal recorded for C#C[C@]1(O)CC[C@H]2[C@@H]3[C@H](C)CC4=C(CCC(=O)C4)[C@H]3CCC21C (some centres not stated)
249

* * *

Test system: R275C/beta4
Assay: modulators of BK channel variants, profiling panel, selectivity assay, cell-based, U2OS BacMam, thallium flux, beta subunits (AID 1259406);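 also: initial slope of Thallos dye fluorescence rise after thallium is added; log ratio against the mean of 0.3% DMSO vehicle wells on the same plate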
Conditions: at 30 µM
Active and inactive are the calls of the source.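 The calls were made as follows: active = thallium flux through the channel raised or lowered by more than 3 SD from vehicle-only wells, actives on both sides; inactive = the rest.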
OUTCOME_MEASURE: log fold change Tl+ flux

Below, each entry is followed by its recorded log fold change Tl+ flux result.
Cc1cc(C)n2nc(Sc3ncccc3[N+](=O)[O-])nc2n1    0.00925 (inactive)
CC(C)OC(=O)CCC/C=C\C[C@@H]1[C@@H](CC[C@@H](O)CCc2ccccc2)[C@H](O)C[C@@H]1O    0.467 (active)
Cc1cc(S(=O)(=O)c2ccc(Cl)cc2)sc1C(=O)NCC(O)c1ccccc1 (stereo unspecified)    0.0561 (inactive)
O=c1c(Cl)c(N2CCOCC2)cnn1-c1cnc2ccccc2n1    -0.0173 (inactive)
CCOC(=O)c1cc(CC)sc1NC(=O)C(Cl)(Cl)Cl    -0.00727 (inactive)

Write down log fold change Tl+ flux measured for item CCOC(=O)c1ccc(OC(=O)CCCCCN=C(N)N)cc1
-0.00905 (inactive)

Determine from records and report log fold change Tl+ flux for CCOC(=O)CSc1nnc(OCC)n1-c1ccccc1
-0.0109 (inactive)

Specify log fold change Tl+ flux for Cc1c(O)nc2ccccn2c1=O and stop.
0.0309 (inactive)

Answer with reported log fold change Tl+ flux of Clc1ccc(Sc2cn[nH]c2-c2ccc3c(c2)OCCO3)cc1
-0.0292 (inactive)

Look up and report measured log fold change Tl+ flux for this entry: CCc1cc(C(=O)c2ccc(OC)cc2)c(NC(=O)CN2CCN(C)CC2)s1
0.0372 (inactive)

In one line, give reported log fold change Tl+ flux of the entry Cc1onc(-c2c(Cl)cccc2Cl)c1C1=NCCO1 .
0.0277 (inactive)

State its log fold change Tl+ flux: CS(=O)(=O)C(C#N)=NNc1ccc(OC(F)(F)F)cc1
0.0407 (inactive)

Provide one value: measured log fold change Tl+ flux of CCCOc1ccccc1C=NNC(=S)Nc1ccc(C)c(C)c1
0.00171 (inactive)

Return log fold change Tl+ flux (reported value) for this molecule: O=C(c1ncoc1-c1ccccc1)N(Cc1ccccn1)Cc1ccccn1
0.0394 (inactive)

Recall and state the measured log fold change Tl+ flux for CC1(C)SC2C(NC(=O)C(N)c3ccccc3)C(=O)N2C1C(=O)O (stereo unspecified) .
-0.0148 (inactive)

Determine its reported log fold change Tl+ flux: N#Cc1cc(-c2ccccc2)oc1NC(=O)c1cccs1
-0.00555 (inactive)

State its log fold change Tl+ flux: CCC(=NOc1ccc(C(F)(F)F)cn1)c1ccc(-c2ccccc2F)cc1
0.0265 (inactive)

Return reported log fold change Tl+ flux. Input molecule: CC(C)c1ccc(NC(=S)NC2CC3CC2C2C=CCC32)cc1 (stereo unspecified)
-0.11 (active)

Hello, please tell me recorded log fold change Tl+ flux for this one: Cc1[nH]n(-c2c(Cl)cc(C(F)(F)F)cc2Cl)c(=O)c1N=Nc1ccccc1
-0.0209 (inactive)

Please give the documented log fold change Tl+ flux of Fc1ccc(CCc2ccc(F)cc2)cc1
0.0168 (inactive)

* * *

System: R275C/beta1
Assay: modulators of BK channel variants, profiling panel, selectivity assay, cell-based, U2OS BacMam, thallium flux, beta subunits (AID 1259406);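 also: initial slope of Thallos dye fluorescence rise after thallium is added; log ratio against the mean of 0.3% DMSO vehicle wells on the same plate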
Conditions: at 30 µM
The source made the active and inactive calls.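 How the source made its calls: active means thallium flux through the channel raised or lowered by more than 3 SD from vehicle-only wells, actives on both sides; inactive means the rest.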
Your reply should match one of these outcome classes. active, inactive

Here's what some known entries look like.
O=C(NC1CCSC1)c1ccccc1NS(=O)(=O)c1ccccc1 (stereo not given)    active
O=C(Nc1ccccc1)OCc1cc(-c2ccccc2)c(C(F)(F)F)s1    active
CO[C@H]1/C=C/O[C@@]2(C)Oc3c(C)c(O)c4c(O)c(c(C=NN5CCN(C6CCCC6)CC5)c(O)c4c3C2=O)NC(=O)/C(C)=C\C=C\[C@H](C)[C@H](O)[C@@H](C)[C@@H](O)[C@@H](C)[C@H](OC(C)=O)[C@@H]1C    active
COc1cccc(N2CC(=O)N(NC(=O)NC3CCCCC3)CC2=O)c1    inactive
Cc1cccc(N=Cc2cc(Cl)cc(Cl)c2O)c1C    inactive
O=C(c1ccccc1)c1ccc2c(c1)Cc1ccccc1-2    inactive

For O=C(OC1C[C@@H]2CC3C[C@H](C1)N2CC3=O)c1c[nH]c2ccccc12 (stereo not given in full) , what call appears in the results of this test?
inactive

Recorded test outcome, item CCOC(=O)Cn1c(-c2c(Cl)cccc2Cl)noc1=O
inactive

Tell me the recorded outcome of this test for O=C(c1ncoc1-c1ccccc1)N(Cc1ccccn1)Cc1ccccn1 .
inactive
